# viability at 100 µg/mL per record follows
Test system: C6
Assay: Cytotoxicity against rat C6 cells assessed as cell viability at 100 ug/ml after 24 hrs by MTT assay relative to control
Assay type: functional
Conditions: C6, 24 h, read-out: Activity

[
  {
    "smiles_representation": "COc1ccc(-c2cs/c(=N/NC(=O)CSc3ncccn3)n2-c2ccccc2)cc1",
    "viability at 100 µg/mL": "51.5%"
  },
  {
    "smiles_representation": "Cn1nnnc1SCC(=O)N/N=c1/scc(-c2ccc(C#N)cc2)n1-c1ccccc1",
    "viability at 100 µg/mL": "30.9%"
  },
  {
    "smiles_representation": "Cn1nnnc1SCC(=O)N/N=c1/scc(-c2ccc([N+](=O)[O-])cc2)n1-c1ccccc1",
    "viability at 100 µg/mL": "64.1%"
  },
  {
    "smiles_representation": "Cc1ccc(-c2cs/c(=N/NC(=O)CSc3nnc(C)s3)n2-c2ccccc2)cc1",
    "viability at 100 µg/mL": "31.5%"
  },
  {
    "smiles_representation": "O=C(CSc1ncccn1)N/N=c1/scc(-c2ccc(Cl)cc2)n1-c1ccccc1",
    "viability at 100 µg/mL": "45.5%"
  }
]

Just for reference, ChEMBL document CHEMBL3124777 is where these values come from.
